Measurement Target: F protein of wild type RSV A/Long (respiratory syncytial virus, strain …, UniProt P12568 26-574)
Sequence (P12568 26-574): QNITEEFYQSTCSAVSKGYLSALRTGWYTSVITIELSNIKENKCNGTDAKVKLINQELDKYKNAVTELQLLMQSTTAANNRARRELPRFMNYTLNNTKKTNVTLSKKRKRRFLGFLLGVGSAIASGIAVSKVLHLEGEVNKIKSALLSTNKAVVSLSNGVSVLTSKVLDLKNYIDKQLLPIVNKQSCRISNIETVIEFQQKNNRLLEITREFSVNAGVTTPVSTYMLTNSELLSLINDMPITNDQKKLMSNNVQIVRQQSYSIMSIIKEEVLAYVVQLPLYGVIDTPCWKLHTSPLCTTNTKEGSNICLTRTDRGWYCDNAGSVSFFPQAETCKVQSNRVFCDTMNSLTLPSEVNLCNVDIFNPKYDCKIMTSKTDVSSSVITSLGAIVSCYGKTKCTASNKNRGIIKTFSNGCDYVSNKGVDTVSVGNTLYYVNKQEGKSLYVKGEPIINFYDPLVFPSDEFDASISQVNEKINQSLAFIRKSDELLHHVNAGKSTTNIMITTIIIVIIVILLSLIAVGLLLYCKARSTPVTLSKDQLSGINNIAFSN
Experiment: cell-based or functional assay
Quantity: Mean IC50 (Curve), RSV microneutralization
Hi, when you answer, please include the unit after the number. Thanks!

Binder	Reported
P12f4 (monoclonal antibody) (antibody, V domains shown) VH: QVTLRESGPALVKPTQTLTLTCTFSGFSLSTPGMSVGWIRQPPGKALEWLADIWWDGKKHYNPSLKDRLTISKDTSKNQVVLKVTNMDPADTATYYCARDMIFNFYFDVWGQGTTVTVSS VL: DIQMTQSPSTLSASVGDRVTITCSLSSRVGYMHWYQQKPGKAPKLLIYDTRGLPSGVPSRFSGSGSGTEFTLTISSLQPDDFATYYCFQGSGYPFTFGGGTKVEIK	0.0242 µg/mL

// Mean IC50 (Curve), RSV microneutralization lookup, binder = A13c4 (Fab) (Fab, V domains shown) VH: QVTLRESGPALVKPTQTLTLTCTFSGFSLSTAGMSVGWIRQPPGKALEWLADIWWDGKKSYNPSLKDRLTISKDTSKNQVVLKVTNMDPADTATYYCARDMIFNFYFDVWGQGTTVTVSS VL: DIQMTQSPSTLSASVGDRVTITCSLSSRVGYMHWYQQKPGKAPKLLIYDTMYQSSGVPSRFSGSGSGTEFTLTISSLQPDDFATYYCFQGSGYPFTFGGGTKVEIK , result: 0.0264 µg/mL

Consider SYNAGIS® (antibody, V domains shown, also called SYNAGIS ®/SYNAGIS ® (HC/LC)) VH: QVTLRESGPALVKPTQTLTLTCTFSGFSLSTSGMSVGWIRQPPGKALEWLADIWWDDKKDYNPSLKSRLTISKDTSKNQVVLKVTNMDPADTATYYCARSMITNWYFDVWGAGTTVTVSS VL: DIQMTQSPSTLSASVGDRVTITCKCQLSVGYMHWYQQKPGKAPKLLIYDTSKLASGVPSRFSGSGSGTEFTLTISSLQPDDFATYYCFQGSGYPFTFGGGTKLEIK . Its measured Mean IC50 (Curve), RSV microneutralization is 0.453 µg/mL
